assay: clinical; conditions: male, human, in vivo, iv, 150 mg
readout.name: half-life

Asked: Reported half-life for CCC(CC)COC(=O)[C@H](C)N[P@](=O)(OC[C@H]1O[C@@](C#N)(c2ccc3c(N)ncnn23)[C@H](O)[C@@H]1O)Oc1ccccc1 : what is it?
Given back: ~1 h

====

Each entry below carries its reported CL renal.
assay: clinical; settings: male, human, in vivo, renal clearance CLr

CCC(CC)COC(=O)[C@H](C)N[P@](=O)(OC[C@H]1O[C@@](C#N)(c2ccc3c(N)ncnn23)[C@H](O)[C@@H]1O)Oc1ccccc1: 129 mL/min

As a next step, examine the compound that follows.
Asked: Reported CL renal for N#C[C@@]1(c2ccc3c(N)ncnn23)O[C@H](CO)[C@@H](O)[C@H]1O : what is it?
Given back: 151 mL/min

====

assay: in vivo; conditions: rhesus monkey, iv
readout.name: AUC(0-t) (ng·h/mL)
Express it in ng·h/mL; write the number only.

Asked: Reported AUC(0-t) for CCC(CC)COC(=O)[C@H](C)N[P@](=O)(OC[C@H]1O[C@@](C#N)(c2ccc3c(N)ncnn23)[C@H](O)[C@@H]1O)Oc1ccccc1 : what is it?
Given back: 1430

====

test: clinical; conditions: both, human, in vivo, 100 mg
Each entry below carries its reported Tmax.
Express it in h; write the number only.

N#C[C@@]1(c2ccc3c(N)ncnn23)O[C@H](CO)[C@@H](O)[C@H]1O [GS-441524]: 1.51

As a next step, examine the compound that follows.
Asked: Reported Tmax for CCC(CC)COC(=O)[C@H](C)N[P@](=O)(OC[C@H]1O[C@@](C#N)(c2ccc3c(N)ncnn23)[C@H](O)[C@@H]1O)Oc1ccccc1 [RDV] : what is it?
Given back: 0.68

====

test: clinical; conditions: both, human, in vivo, 200 mg, t1/2, median (Q1, Q3)
readout.name: half-life (min)
Express it in min; write the number only.

Asked: Reported half-life for CCC(CC)COC(=O)[C@H](C)N[P@](=O)(OC[C@H]1O[C@@](C#N)(c2ccc3c(N)ncnn23)[C@H](O)[C@@H]1O)Oc1ccccc1 : what is it?
Given back: 54

====

Each entry below carries its reported Tmax.
experiment: clinical; conditions: both, human, in vivo, 200 mg
Express it in h; write the number only.

N#C[C@@]1(c2ccc3c(N)ncnn23)O[C@H](CO)[C@@H](O)[C@H]1O [GS-441524]: 2

As a next step, examine the compound that follows.
Asked: Reported Tmax for CCC(CC)COC(=O)[C@H](C)N[P@](=O)(OC[C@H]1O[C@@](C#N)(c2ccc3c(N)ncnn23)[C@H](O)[C@@H]1O)Oc1ccccc1 [RDV] : what is it?
Given back: 0.67

====

assay: clinical; settings: male, human, in vivo, estimated secretory clearance CLr,s
readout.name: CL renal (mL/min)
Express it in mL/min; write the number only.

Asked: Reported CL renal for N#C[C@@]1(c2ccc3c(N)ncnn23)O[C@H](CO)[C@@H](O)[C@H]1O [GS-441524] : what is it?
Given back: 31

====

assay: clinical; conditions: both, human, in vivo, iv
readout.name: AUC (ng·h/mL)
Express it in ng·h/mL; write the number only.

Asked: Reported AUC for CCC(CC)COC(=O)[C@H](C)N[P@](=O)(OC[C@H]1O[C@@](C#N)(c2ccc3c(N)ncnn23)[C@H](O)[C@@H]1O)Oc1ccccc1 : what is it?
Given back: 1590

====

assay: clinical; details: male, human, in vivo, iv
readout.name: Tmax (h)
Express it in h; write the number only.

Asked: Reported Tmax for N#C[C@@]1(c2ccc3c(N)ncnn23)O[C@H](CO)[C@@H](O)[C@H]1O [GS-441524] : what is it?
Given back: 3

====

experiment: clinical; conditions: both, human, in vivo, 200 mg
readout.name: AUC(0-t) (ng·h/mL)
Express it in ng·h/mL; write the number only.

N#C[C@@]1(c2ccc3c(N)ncnn23)O[C@H](CO)[C@@H](O)[C@H]1O: 2190

As a next step, examine the compound that follows.
Asked: Reported AUC(0-t) for CCC(CC)COC(=O)[C@H](C)N[P@](=O)(OC[C@H]1O[C@@](C#N)(c2ccc3c(N)ncnn23)[C@H](O)[C@@H]1O)Oc1ccccc1 : what is it?
Given back: 2860

====

test: clinical; details: both, human, in vivo, 100 mg, t1/2, median (Q1, Q3)
readout.name: half-life (min)
Express it in min; write the number only.

Asked: Reported half-life for N#C[C@@]1(c2ccc3c(N)ncnn23)O[C@H](CO)[C@@H](O)[C@H]1O : what is it?
Given back: 1640

Asked: Reported half-life for CCC(CC)COC(=O)[C@H](C)N[P@](=O)(OC[C@H]1O[C@@](C#N)(c2ccc3c(N)ncnn23)[C@H](O)[C@@H]1O)Oc1ccccc1 : what is it?
Given back: 57.6

====

experiment: clinical; details: both, human, in vivo, median t1/2
readout.name: half-life

Asked: Reported half-life for CCC(CC)COC(=O)[C@H](C)N[P@](=O)(OC[C@H]1O[C@@](C#N)(c2ccc3c(N)ncnn23)[C@H](O)[C@@H]1O)Oc1ccccc1 [RDV] : what is it?
Given back: ~1 h

====

assay: clinical; details: both, human, in vivo, 100 mg, CLss, mean (%CV)
readout.name: clearance

Asked: Reported clearance for CCC(CC)COC(=O)[C@H](C)N[P@](=O)(OC[C@H]1O[C@@](C#N)(c2ccc3c(N)ncnn23)[C@H](O)[C@@H]1O)Oc1ccccc1 [RDV] : what is it?
Given back: ~1080 mL/min
